TESTED_ON: T1, soluble human FcRn (human, UniProt P55899 24-297; P61769 21-119, biotinylated (Sulfo-NHS-LC-Biotin) in the ELISA; amine-coupled to CM5 chip in SPR)
T1 construct: also called shFcRn; biotinylated shFcRn
TEST_METHOD_NOTES: SPR, pH 6
pKd: −log10 of the molar value.
MEASURED_ATTRIBUTE: pKd

A: RFXTGHFTGLYPC (Pen at 3; D-Thr at 8; Sar at 9; NMeLeu at 10; disulfide; C-terminal amide) [Peptide No. 240]
B: RFXTGHFNGLYPC (Pen at 3; D-Asn at 8; Sar at 9; NMeLeu at 10; disulfide; C-terminal amide) [Peptide No. 243]
C: RFXTGHFGGLYPC (Pen at 3; Sar at 9; NMeLeu at 10; disulfide; C-terminal amide) [Peptide No. 235]
D: RFXTGHFLGLYPC (Pen at 3; D-Leu at 8; Sar at 9; NMeLeu at 10; disulfide; C-terminal amide) [Peptide No. 219]
(Q) Sort entries by pKd from minimum to maximum value. # format: label list in the order the request specifies
(A) A, B, D, C
(A: 5.32, B: 5.68, D: 6.33, C: 7.51)
